Attribute: inhibition at 40 µM
- study.system: Aβ1–42 self-aggregation (Homo sapiens, UniProt P05067)
- Construct: Commercially available Aβ1-42 peptide was obtained from Aldrich; purchased Aldrich
- Sequence (P05067 672-713 limits assumed): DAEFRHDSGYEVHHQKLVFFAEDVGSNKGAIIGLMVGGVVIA
- protocol: Aβ1–42 self-aggregation inhibition, thioflavin T fluorescence assay
- Assay type: biochemical
- test.context: self-mediated Aβ42 aggregation, ThT fluorescence; CL = 40 μM; means of two experiments; read-out: Inhibition of Aβ-self-aggregation (%)

Note to self: inhibition at 40 µM recorded for COc1cc(-c2nc3ccccc3s2)ccc1OCC(=O)NCCCNc1c2c(nc3cc(Cl)ccc13)CCCC2 [compound 17] was 32.5%

* * *

Attribute: Highest non-toxic concentration selected
- System: SH-SY5Y cells
- protocol: Dose-response screening for non-toxic concentration, MTT reduction
- Format: cell-based
- test.context: dose-response screening from 0.2 μM to 5 μM, 25 h

// known answers, use as guide
Note to self: Highest non-toxic concentration selected recorded for COc1cc(-c2nc3ccccc3s2)ccc1OCC(=O)NCCCNc1c2c(nc3ccccc13)CCCC2 [compound 16] was 2.5 µM

Note to self: Highest non-toxic concentration selected recorded for COc1cc(-c2nc3ccccc3s2)ccc1OCC(=O)NCC(O)CNc1c2c(nc3ccccc13)CCCC2 (stereo not drawn) [compound 18] was 1 µM

Note to self: Highest non-toxic concentration selected recorded for COc1cc(-c2nc3ccccc3s2)ccc1OCC(=O)NCCNc1c2c(nc3ccccc13)CCCC2 [compound 14] was 0.2 µM

New cases:
Note to self: Highest non-toxic concentration selected recorded for COc1cc(-c2nc3ccccc3s2)ccc1OCC(=O)NCCCNc1c2c(nc3cc(Cl)ccc13)CCCC2 [compound 17] was 0.5 µM

Note to self: Highest non-toxic concentration selected recorded for COc1cc(-c2nc3ccccc3s2)ccc1OCC(=O)NCCNc1c2c(nc3cc(Cl)ccc13)CCCC2 [compound 15] was 0.2 µM

Note to self: Highest non-toxic concentration selected recorded for COc1cc(-c2nc3ccccc3s2)ccc1OCC(=O)NCC(O)CNc1c2c(nc3cc(Cl)ccc13)CCCC2 (stereo not drawn) [compound 19] was 1 µM

Where do the numbers come from? From paper PMC6385087.
